Listed compounds paired with reported pEC50
Target: Cannabinoid receptor 2 (Homo sapiens, UniProt P34972)
Sequence (P34972 whole entry): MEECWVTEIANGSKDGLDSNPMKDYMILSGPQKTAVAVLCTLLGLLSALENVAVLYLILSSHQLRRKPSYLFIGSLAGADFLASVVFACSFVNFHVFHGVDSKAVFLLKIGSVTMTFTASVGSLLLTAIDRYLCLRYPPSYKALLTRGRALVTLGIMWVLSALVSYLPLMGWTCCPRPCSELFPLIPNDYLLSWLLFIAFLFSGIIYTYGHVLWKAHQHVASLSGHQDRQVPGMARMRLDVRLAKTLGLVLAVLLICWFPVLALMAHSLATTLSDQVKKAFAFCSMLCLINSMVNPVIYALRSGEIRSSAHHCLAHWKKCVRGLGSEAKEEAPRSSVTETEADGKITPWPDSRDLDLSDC
Test: cAMP Assay : Cells plated the day prior to the assay in clear bottom plates were viewed on an inverse microscope to ensure confluency in the range of 60-75%. The following mixtures and buffer solutions were prepared: (a) Buffer 1: HBSS (Mediatech Cat#21-023-CV) with 5 mM HEPES ([…], Gibco BRL Cat#15630-056) and 0.1% BSA (7.5% stock, Invitrogen Cat#15260-037); (b) Buffer 2: 0.5 mM IBMX (200 mM stock in DMSO, Sigma 15879) in Buffer 1; (c) 1 μM cAMP Standard (50 μM stock, Perkin Elmer Cat# AD0262) diluted in Buffer 2 and serially diluted in Buffer 2, 12 doses @ ½ dilutions resulting in a dose range of 1 μM to 0.5 nM; (d) d2 labelled cAMP (CisBio HTRF Detection Kit Cat #62AM4PEB reconstituted with 6 mL d-H2O) diluted 1/20 with lysis buffer (CisBio HTRF Detection Kit Cat #62AM4PEB); (e) anti-cAMP (CisBio HTRF Detection Kit Cat # 62AM4PEB reconstituted with 5 mL d-H2O) diluted 1/20 with lysis buffer (CisBio HTRF Detection Kit Cat #62AM4PEB); and (f) Forskolin (Sigma Cat# F6886, 10 mM in DMSO) diluted first in DMSO to 1 mM and then to 1.5 μM in Buffer 2.
pEC50: −log10 of the molar value.

{"input-smiles": "COCCOCCOCCOCCOCCOCCOCCn1c(=O)cc(NC2CCN(S(=O)(=O)C(F)(F)F)CC2)c2cc(C(c3ccc(Cl)cc3)c3ccc(Cl)cc3)ccc21", "pEC50": "< 5.00"}
{"input-smiles": "COCCOCCOCCOCCOCCOCCOCCOc1cc(NC2CCN(S(=O)(=O)C(F)(F)F)CC2)c2cc(C(c3ccc(Cl)cc3)c3ccc(Cl)cc3)ccc2n1", "pEC50": 5.25}

Ask: Request - read-out pEC50 | tested on Cannabinoid receptor 2 (Homo sapiens, UniProt P34972) | compound CC(C)(C)OC(=O)NCCOCCOCCOCCOCCOCCOCCOCCOCCOCCOCCOCCOc1cc(NC2CCN(S(=O)(=O)C(F)(F)F)CC2)c2cc(C(c3ccc(Cl)cc3)c3ccc(Cl)cc3)ccc2n1
Result: < 5.00

----------
Target: Cannabinoid receptor 1 (Homo sapiens, UniProt P21554)
Sequence (P21554 whole entry): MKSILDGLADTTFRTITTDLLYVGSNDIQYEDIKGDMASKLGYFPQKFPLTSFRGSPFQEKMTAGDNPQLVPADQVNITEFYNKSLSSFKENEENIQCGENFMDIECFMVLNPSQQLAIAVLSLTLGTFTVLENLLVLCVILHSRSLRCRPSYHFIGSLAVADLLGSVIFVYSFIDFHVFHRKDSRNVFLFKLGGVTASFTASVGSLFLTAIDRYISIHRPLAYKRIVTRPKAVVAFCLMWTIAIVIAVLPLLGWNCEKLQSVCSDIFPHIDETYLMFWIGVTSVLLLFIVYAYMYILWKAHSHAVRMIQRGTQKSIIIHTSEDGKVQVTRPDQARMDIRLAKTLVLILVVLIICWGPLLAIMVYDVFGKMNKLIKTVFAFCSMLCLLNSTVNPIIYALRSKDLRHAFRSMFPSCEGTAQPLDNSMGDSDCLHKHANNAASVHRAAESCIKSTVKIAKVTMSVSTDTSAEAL
Test: cAMP Assay : Cells plated the day prior to the assay in clear bottom plates were viewed on an inverse microscope to ensure confluency in the range of 60-75%. The following mixtures and buffer solutions were prepared: (a) Buffer 1: HBSS (Mediatech Cat#21-023-CV) with 5 mM HEPES ([…], Gibco BRL Cat#15630-056) and 0.1% BSA (7.5% stock, Invitrogen Cat#15260-037); (b) Buffer 2: 0.5 mM IBMX (200 mM stock in DMSO, Sigma 15879) in Buffer 1; (c) 1 μM cAMP Standard (50 μM stock, Perkin Elmer Cat# AD0262) diluted in Buffer 2 and serially diluted in Buffer 2, 12 doses @ ½ dilutions resulting in a dose range of 1 μM to 0.5 nM; (d) d2 labelled cAMP (CisBio HTRF Detection Kit Cat #62AM4PEB reconstituted with 6 mL d-H2O) diluted 1/20 with lysis buffer (CisBio HTRF Detection Kit Cat #62AM4PEB); (e) anti-cAMP (CisBio HTRF Detection Kit Cat # 62AM4PEB reconstituted with 5 mL d-H2O) diluted 1/20 with lysis buffer (CisBio HTRF Detection Kit Cat #62AM4PEB); and (f) Forskolin (Sigma Cat# F6886, 10 mM in DMSO) diluted first in DMSO to 1 mM and then to 1.5 μM in Buffer 2.
quantity-kind: EC50 (nM)

{"input-smiles": "COCCOCCOCCOCCn1c(=O)c(N2CCN(c3ccccc3)CC2)cc2cc(C(c3ccc(Cl)cc3)c3ccc(Cl)cc3)ccc21", "EC50, nM": 350}
{"input-smiles": "COCCOCCOCCOCCOc1cc(NC2CCN(S(=O)(=O)C(F)(F)F)CC2)c2cc(C(c3ccc(Cl)cc3)c3ccc(Cl)cc3)ccc2n1", "EC50, nM": 56}
{"input-smiles": "NNC(=O)CCOCCOCCOCCOCCOCCOCCOCCOCCOCCNC(=O)CCCCCOc1cc(NC2CCN(S(=O)(=O)C(F)(F)F)CC2)c2cc(C(c3ccc(Cl)cc3)c3ccc(Cl)cc3)ccc2n1", "EC50, nM": 33}
{"input-smiles": "CC(C)(C)OC(=O)CCOCCOCCOCCOCCOCCOCCOCCOCCOCCOCCOCCOCCOc1cc(C(c2ccc(Cl)cc2)c2ccc(Cl)cc2)cc2c(NC3CCN(S(=O)(=O)C(F)(F)F)CC3)ccnc12", "EC50, nM": 460}

[a] COCCOCCOCCOCCOCCOCCOCCOc1cc(NC2CCN(S(=O)(=O)C(F)(F)F)CC2)c2cc(C(c3ccc(Cl)cc3)c3ccc(Cl)cc3)ccc2n1
[b] NCCOCCOCCOCCOCCOCCOCCOCCOCCOCCOCCOCCOc1cc(NC2CCN(S(=O)(=O)C(F)(F)F)CC2)c2cc(C(c3ccc(Cl)cc3)c3ccc(Cl)cc3)ccc2n1
[c] COCCOCCOCCOCCOCCOCCOCCn1c(=O)cc(NC2CCN(S(=O)(=O)C(F)(F)F)CC2)c2cc(C(c3ccc(Cl)cc3)c3ccc(Cl)cc3)ccc21
[d] O=S(=O)(N1CCC(Nc2ccnc3c(OCCOCCOCCOCCOCCOCCOCCOCCOCCOCCO)cc(C(c4ccc(Cl)cc4)c4ccc(Cl)cc4)cc23)CC1)C(F)(F)F
[e] CC(C)(C)OC(=O)NCCOCCOCCOCCOCCOCCOCCOCCOCCOCCOCCOCCOc1cc(NC2CCN(S(=O)(=O)C(F)(F)F)CC2)c2cc(C(c3ccc(Cl)cc3)c3ccc(Cl)cc3)ccc2n1
Ask: Order field: EC50 | Direction: descending (largest first) Form entry: ranked labels (order as requested).
Result: c, e, a, d, b

----------
Biological target: Cannabinoid receptor 2 (Homo sapiens, UniProt P34972)
Experiment: cAMP Assay : Cells plated the day prior to the assay in clear bottom plates were viewed on an inverse microscope to ensure confluency in the range of 60-75%. The following mixtures and buffer solutions were prepared: (a) Buffer 1: HBSS (Mediatech Cat#21-023-CV) with 5 mM HEPES ([…], Gibco BRL Cat#15630-056) and 0.1% BSA (7.5% stock, Invitrogen Cat#15260-037); (b) Buffer 2: 0.5 mM IBMX (200 mM stock in DMSO, Sigma 15879) in Buffer 1; (c) 1 μM cAMP Standard (50 μM stock, Perkin Elmer Cat# AD0262) diluted in Buffer 2 and serially diluted in Buffer 2, 12 doses @ ½ dilutions resulting in a dose range of 1 μM to 0.5 nM; (d) d2 labelled cAMP (CisBio HTRF Detection Kit Cat #62AM4PEB reconstituted with 6 mL d-H2O) diluted 1/20 with lysis buffer (CisBio HTRF Detection Kit Cat #62AM4PEB); (e) anti-cAMP (CisBio HTRF Detection Kit Cat # 62AM4PEB reconstituted with 5 mL d-H2O) diluted 1/20 with lysis buffer (CisBio HTRF Detection Kit Cat #62AM4PEB); and (f) Forskolin (Sigma Cat# F6886, 10 mM in DMSO) diluted first in DMSO to 1 mM and then to 1.5 μM in Buffer 2.
pEC50: −log10 of the molar value.
quantity-kind: pEC50

{"input-smiles": "NCCOCCOCCOCCOCCOCCOCCOCCOCCOCCOCCOCCOc1cc(NC2CCN(S(=O)(=O)C(F)(F)F)CC2)c2cc(C(c3ccc(Cl)cc3)c3ccc(Cl)cc3)ccc2n1", "pEC50": 5.37}
{"input-smiles": "CC(C)(C)OC(=O)CCOCCOCCOCCOCCOCCOCCOCCOCCOCCOCCOCCOCCOc1cc(C(c2ccc(Cl)cc2)c2ccc(Cl)cc2)cc2c(NC3CCN(S(=O)(=O)C(F)(F)F)CC3)ccnc12", "pEC50": 5.65}
{"input-smiles": "COCCOCCOCCOCCOc1cc(NC2CCN(S(=O)(=O)C(F)(F)F)CC2)c2cc(C(c3ccc(Cl)cc3)c3ccc(Cl)cc3)ccc2n1", "pEC50": 5.13}
{"input-smiles": "NNC(=O)CCOCCOCCOCCOCCOCCOCCOCCOCCOCCNC(=O)CCCCCOc1cc(NC2CCN(S(=O)(=O)C(F)(F)F)CC2)c2cc(C(c3ccc(Cl)cc3)c3ccc(Cl)cc3)ccc2n1", "pEC50": 5.90}

[I] COCCOCCOCCOCCn1c(=O)c(N2CCN(c3ccccc3)CC2)cc2cc(C(c3ccc(Cl)cc3)c3ccc(Cl)cc3)ccc21
[II] O=S(=O)(N1CCC(Nc2ccnc3c(OCCOCCOCCOCCOCCOCCOCCOCCOCCOCCO)cc(C(c4ccc(Cl)cc4)c4ccc(Cl)cc4)cc23)CC1)C(F)(F)F
Ask: Which gives the smaller pEC50 number: I or II ? Kindly state the label of the option you pick.
Result: I
(I: 5.26, II: 5.72)
